Reported inhibition at 1 µM values follow for various molecules
# Experimental target: aromatase (CYP19A, EC 1.14.14.14) (Homo sapiens)
# Construct: Microsomal samples were isolated from tissue using the Microsome Isolation Kit; tissue BioVision K983-100; host or cells: microsomes from an unnamed tissue
# Test protocol: biochemical
# Condition notes: read-out: Inhibition (%) Aromatase, 1 µM; individual Data 1-3
Quantity measured: inhibition at 1 µM (%)

>>> endpoint_result("COc1cccc(C(=O)/C=C/c2ccc(OCc3ccccc3)cc2)c1 [Compound 4q]")
55.9
>>> endpoint_result("O=C(/C=C/c1ccc(O)cc1)c1ccccc1 [Compound 4b]")
47.8
>>> endpoint_result("COc1ccc(C(=O)/C=C/c2ccc(OCc3ccccc3)c(OC)c2)cc1 [Compound 4v]")
66
>>> endpoint_result("O=C(/C=C/c1ccccc1)c1ccccc1 [Compound 4a, (E)-Chalcone]")
64

====

# Experimental target: aromatase (CYP19A, EC 1.14.14.14) (Homo sapiens, UniProt P11511)
# Construct: Microsomal samples were isolated from tissue using the Microsome Isolation Kit; tissue BioVision K983-100
# Sequence (P11511 whole entry, species assumed): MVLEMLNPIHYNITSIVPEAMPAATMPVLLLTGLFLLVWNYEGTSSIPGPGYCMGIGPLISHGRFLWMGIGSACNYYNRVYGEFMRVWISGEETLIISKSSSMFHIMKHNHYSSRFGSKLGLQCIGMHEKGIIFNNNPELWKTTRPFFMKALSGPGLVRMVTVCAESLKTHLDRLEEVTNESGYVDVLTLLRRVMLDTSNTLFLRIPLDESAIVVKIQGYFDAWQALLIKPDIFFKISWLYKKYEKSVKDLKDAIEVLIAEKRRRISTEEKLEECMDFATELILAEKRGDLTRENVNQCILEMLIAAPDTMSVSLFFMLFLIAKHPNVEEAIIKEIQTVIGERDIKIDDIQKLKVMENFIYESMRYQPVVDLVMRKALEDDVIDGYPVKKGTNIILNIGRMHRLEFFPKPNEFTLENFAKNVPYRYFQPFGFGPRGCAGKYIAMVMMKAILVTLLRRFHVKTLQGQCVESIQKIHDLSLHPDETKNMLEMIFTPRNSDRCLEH
# Test protocol: biochemical
# Condition notes: mean ± SD of triplicate; approximate values; read-out: Aromatase Inhibition IC50
Quantity measured: IC50 (nM)

>>> endpoint_result("COc1ccc(C(=O)/C=C/c2ccc(OCc3ccccc3)c(OC)c2)cc1 [Compound 4v]")
357

====

In what follows, each item is paired with its IC50 for HER2 (Homo sapiens, UniProt P04626).
Quantity measured: IC50 (nM)

>>> endpoint_result("O=C(/C=C/c1ccccc1)c1ccccc1 [Compound 4a, (E)-Chalcone]")
691
>>> endpoint_result("O=C(/C=C/c1ccc(O)cc1)c1ccccc1")
387
>>> endpoint_result("COc1ccc(C(=O)/C=C/c2ccc(OCc3ccccc3)c(OC)c2)cc1")
1570

====

# System: MCF-7
# Test protocol: MTT cytotoxicity assay, MCF-7
# Assay type: cell-based, human
# Condition notes: 24 h treatment, mean ± SD of triplicate
Quantity measured: IC50 (µM)

>>> endpoint_result("O=C(/C=C/c1ccc(OCc2ccccc2)cc1)c1ccccc1 [Compound 4i]")
85.5

====

# Experimental target: HER2 (Homo sapiens, UniProt P04626)
# Sequence (P04626 23-1255): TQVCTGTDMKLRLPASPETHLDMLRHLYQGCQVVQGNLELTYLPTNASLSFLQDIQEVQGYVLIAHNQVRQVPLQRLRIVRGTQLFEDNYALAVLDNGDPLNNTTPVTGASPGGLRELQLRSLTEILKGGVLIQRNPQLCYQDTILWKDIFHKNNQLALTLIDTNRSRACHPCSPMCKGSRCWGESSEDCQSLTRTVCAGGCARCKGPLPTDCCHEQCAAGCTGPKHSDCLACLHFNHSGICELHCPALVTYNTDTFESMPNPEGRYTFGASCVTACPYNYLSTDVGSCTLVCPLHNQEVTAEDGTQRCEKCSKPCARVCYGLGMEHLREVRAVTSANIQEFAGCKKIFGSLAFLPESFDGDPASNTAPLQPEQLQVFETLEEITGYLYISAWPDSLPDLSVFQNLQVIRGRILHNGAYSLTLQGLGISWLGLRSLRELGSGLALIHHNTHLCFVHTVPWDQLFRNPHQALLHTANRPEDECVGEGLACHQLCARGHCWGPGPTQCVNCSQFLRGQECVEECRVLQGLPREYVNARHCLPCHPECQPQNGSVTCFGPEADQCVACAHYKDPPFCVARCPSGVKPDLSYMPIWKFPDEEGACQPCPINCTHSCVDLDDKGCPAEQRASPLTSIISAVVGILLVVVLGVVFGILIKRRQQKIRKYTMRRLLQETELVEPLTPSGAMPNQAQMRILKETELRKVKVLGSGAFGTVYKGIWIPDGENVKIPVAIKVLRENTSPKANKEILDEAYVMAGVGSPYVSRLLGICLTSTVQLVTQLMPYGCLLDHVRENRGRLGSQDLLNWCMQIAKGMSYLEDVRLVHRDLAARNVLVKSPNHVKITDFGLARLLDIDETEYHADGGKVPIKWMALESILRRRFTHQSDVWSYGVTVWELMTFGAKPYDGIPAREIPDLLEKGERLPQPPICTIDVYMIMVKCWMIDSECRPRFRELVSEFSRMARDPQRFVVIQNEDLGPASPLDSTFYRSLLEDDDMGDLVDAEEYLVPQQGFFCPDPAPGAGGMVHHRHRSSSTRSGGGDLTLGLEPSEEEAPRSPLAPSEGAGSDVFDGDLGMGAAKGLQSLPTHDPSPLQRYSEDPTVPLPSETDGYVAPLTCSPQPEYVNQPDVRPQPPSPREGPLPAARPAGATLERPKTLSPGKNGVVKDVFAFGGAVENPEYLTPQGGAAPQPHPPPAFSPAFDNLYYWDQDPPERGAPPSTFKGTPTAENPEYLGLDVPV
# Test protocol: In vitro protein kinase inhibition assay (ELISA kit), HER2
# Condition notes: read-out: Inhibition (%) Her2, 0.1 µM; individual Data 1-3
inhibition at 0.1 µM: recorded values
Quantity measured: inhibition at 0.1 µM (%)

>>> endpoint_result("O=C(/C=C/c1ccccc1)c1ccccc1 [Compound 4a, (E)-Chalcone]")
23.8
>>> endpoint_result("COc1cccc(C(=O)/C=C/c2ccc(OCc3ccccc3)cc2)c1 [Compound 4q]")
48
>>> endpoint_result("COc1ccc(C(=O)/C=C/c2ccc(OCc3ccccc3)c(OC)c2)cc1 [Compound 4v]")
10.2
>>> endpoint_result("O=C(/C=C/c1ccc(O)cc1)c1ccccc1 [Compound 4b]")
37.7

====

// values below are reported inhibition at 10 µM
# Experimental target: VEGFR-2 (Homo sapiens)
# Sequence (P35968 20-1356): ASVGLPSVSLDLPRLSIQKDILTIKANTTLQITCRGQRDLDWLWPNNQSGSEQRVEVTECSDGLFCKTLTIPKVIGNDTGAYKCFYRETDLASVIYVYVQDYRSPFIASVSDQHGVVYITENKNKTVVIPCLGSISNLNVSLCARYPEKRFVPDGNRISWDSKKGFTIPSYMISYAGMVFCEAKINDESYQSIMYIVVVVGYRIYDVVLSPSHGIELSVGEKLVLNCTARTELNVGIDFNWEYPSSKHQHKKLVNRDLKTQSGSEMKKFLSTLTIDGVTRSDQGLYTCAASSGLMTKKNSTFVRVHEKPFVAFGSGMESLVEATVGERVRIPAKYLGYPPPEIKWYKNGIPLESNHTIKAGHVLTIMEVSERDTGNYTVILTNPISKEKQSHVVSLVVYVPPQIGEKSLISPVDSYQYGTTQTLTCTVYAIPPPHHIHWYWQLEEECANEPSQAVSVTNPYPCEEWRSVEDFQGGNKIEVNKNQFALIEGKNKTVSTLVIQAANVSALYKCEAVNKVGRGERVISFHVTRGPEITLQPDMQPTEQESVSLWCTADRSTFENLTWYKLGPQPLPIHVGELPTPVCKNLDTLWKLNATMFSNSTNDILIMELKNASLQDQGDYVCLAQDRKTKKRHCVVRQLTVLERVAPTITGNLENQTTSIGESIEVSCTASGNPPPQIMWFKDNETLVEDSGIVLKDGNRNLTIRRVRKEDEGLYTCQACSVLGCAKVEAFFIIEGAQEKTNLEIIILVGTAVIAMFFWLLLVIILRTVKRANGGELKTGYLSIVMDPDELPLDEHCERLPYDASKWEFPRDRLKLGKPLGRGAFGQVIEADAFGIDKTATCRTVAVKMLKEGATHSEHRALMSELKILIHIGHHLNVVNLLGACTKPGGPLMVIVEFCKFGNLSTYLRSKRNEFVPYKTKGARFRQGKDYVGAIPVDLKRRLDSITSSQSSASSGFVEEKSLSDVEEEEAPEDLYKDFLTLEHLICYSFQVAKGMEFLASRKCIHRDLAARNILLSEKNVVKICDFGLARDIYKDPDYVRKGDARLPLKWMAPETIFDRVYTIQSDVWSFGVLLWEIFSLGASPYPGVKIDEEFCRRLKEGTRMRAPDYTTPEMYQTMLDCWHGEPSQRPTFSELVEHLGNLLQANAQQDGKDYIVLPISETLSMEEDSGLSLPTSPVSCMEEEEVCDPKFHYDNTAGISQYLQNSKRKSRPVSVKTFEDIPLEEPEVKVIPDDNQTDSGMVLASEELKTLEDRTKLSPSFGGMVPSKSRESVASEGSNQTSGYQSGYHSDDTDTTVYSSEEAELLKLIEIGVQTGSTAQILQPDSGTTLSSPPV
# Test protocol: In vitro protein kinase inhibition assay (ELISA kit), VEGFR-2
# Condition notes: read-out: Inhibition (%) VEGFR2, 10 µM; individual Data 1-3
Quantity measured: inhibition at 10 µM (%)

>>> endpoint_result("O=C(/C=C/c1ccc(O)cc1)c1ccccc1 [Compound 4b]")
89.5
>>> endpoint_result("O=C(/C=C/c1ccccc1)c1ccccc1 [Compound 4a, (E)-Chalcone]")
73.3
>>> endpoint_result("COc1cccc(C(=O)/C=C/c2ccc(OCc3ccccc3)cc2)c1 [Compound 4q]")
87.3
>>> endpoint_result("COc1ccc(C(=O)/C=C/c2ccc(OCc3ccccc3)c(OC)c2)cc1 [Compound 4v]")
70.2
